biological target: ROCK2 (Homo sapiens, UniProt O75116); assay: ROCK Kinase Assay (Kinase-Glo luminescent); type: biochemical; settings: IC50 converted to Ki by Cheng-Prusoff; ATP 5 μM, ROCK2 1 nM, 180 min; read-out: ROCK2 Ki
Sequence (O75116 whole entry, species assumed): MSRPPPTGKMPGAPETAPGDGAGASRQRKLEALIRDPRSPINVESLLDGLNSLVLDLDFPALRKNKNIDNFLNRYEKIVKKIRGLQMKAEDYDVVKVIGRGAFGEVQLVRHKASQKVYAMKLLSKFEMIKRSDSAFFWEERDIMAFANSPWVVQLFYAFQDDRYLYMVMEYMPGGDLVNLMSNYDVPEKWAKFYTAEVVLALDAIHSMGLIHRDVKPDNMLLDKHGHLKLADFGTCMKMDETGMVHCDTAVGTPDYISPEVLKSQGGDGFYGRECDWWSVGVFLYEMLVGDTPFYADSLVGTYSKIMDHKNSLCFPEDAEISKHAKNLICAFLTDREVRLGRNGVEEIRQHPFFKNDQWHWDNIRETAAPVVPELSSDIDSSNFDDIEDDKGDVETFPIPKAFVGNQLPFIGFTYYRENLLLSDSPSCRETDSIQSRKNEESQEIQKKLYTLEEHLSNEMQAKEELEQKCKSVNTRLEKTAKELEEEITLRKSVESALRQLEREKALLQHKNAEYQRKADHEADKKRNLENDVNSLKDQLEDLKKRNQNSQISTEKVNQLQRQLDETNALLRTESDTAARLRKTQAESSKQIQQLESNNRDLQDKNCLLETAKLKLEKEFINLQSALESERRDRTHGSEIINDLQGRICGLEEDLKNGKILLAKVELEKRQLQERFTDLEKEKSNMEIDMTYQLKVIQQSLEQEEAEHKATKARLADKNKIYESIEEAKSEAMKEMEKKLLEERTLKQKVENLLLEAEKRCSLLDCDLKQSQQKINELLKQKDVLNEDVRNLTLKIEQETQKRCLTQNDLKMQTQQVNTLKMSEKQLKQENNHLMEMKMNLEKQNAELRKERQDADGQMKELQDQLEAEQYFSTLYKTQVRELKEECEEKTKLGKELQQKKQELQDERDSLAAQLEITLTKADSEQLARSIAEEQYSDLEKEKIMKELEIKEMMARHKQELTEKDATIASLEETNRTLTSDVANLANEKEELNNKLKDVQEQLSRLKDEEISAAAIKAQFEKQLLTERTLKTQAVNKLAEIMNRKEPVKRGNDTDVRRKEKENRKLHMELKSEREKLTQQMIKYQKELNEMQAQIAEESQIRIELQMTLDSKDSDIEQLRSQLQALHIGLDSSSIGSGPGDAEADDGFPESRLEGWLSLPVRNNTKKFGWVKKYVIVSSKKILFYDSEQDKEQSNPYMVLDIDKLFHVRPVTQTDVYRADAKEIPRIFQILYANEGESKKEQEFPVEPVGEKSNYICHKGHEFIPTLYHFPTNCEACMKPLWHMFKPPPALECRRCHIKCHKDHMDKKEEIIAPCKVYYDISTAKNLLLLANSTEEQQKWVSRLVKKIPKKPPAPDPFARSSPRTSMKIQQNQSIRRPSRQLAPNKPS
Could you please mark Met for values of Ki below 1 nM and Not met for values at or above it?

>  <compound>
NCC(C(=O)Nc1ccc2cnccc2c1)c1cccc(CO)c1 (stereo not shown)

>  <assignedClass>
Not met

$$$$
>  <compound>
NCC(C(=O)Nc1ccc2cnccc2c1)c1ccc(O)c(O)c1 (stereo not shown)

>  <assignedClass>
Not met

$$$$
>  <compound>
COc1ccc(C(CN)C(=O)Nc2ccc3cnccc3c2)cc1 (stereo not shown)

>  <assignedClass>
Not met

$$$$
>  <compound>
NCC(C(=O)Nc1ccc2cnccc2c1)c1ccc(Cl)cc1 (stereo not shown)

>  <assignedClass>
Met

$$$$
>  <compound>
NCC(C(=O)Nc1ccc2cnccc2c1)c1cccc(Cl)c1 (stereo not shown)

>  <assignedClass>
Met

$$$$
>  <compound>
NCC(C(=O)Nc1ccc2cnccc2c1)c1ccc(Cl)cc1Cl (stereo not shown)

>  <assignedClass>
Met

$$$$
>  <compound>
COc1cccc(C(CN)C(=O)Nc2ccc3cnccc3c2)c1 (stereo not shown)

>  <assignedClass>
Not met

$$$$

Okay, now this compound:
Prompt: Consider the compound NCC(C(=O)Nc1ccc2cnccc2c1)c1ccccc1 (stereo not shown) . Is its Ki strictly less than 1 nM?
Completion: Met

* * *

system: Porcine Trabecular Meshwork cells (PTM); assay: PTM-HTM Assay: porcine trabecular meshwork cells, actin fibers; assay type: cell-based; conditions: Sus scrofa, phalloidin stain, actin fiber length, percent of control
Criterion: IC50 strictly under 400 nM. Met: met. Not met: not met.

Solved cases below.
>  <compound>
Cc1cccc(C(CN)C(=O)Nc2ccc3cnccc3c2)c1 (stereo not drawn)

>  <targetEntity>
Porcine Trabecular Meshwork cells (PTM)

>  <assignedClass>
not met

$$$$
>  <compound>
COc1ccc(C(CN)C(=O)Nc2ccc3cnccc3c2)cc1 (stereo not drawn)

>  <targetEntity>
Porcine Trabecular Meshwork cells (PTM)

>  <assignedClass>
not met

$$$$
>  <compound>
NCC(C(=O)Nc1ccc2cnccc2c1)c1ccc(F)cc1 (stereo not drawn)

>  <targetEntity>
Porcine Trabecular Meshwork cells (PTM)

>  <assignedClass>
met

$$$$
>  <compound>
NCC(C(=O)Nc1ccc2cnccc2c1)c1ccc(O)c(O)c1 (stereo not drawn)

>  <targetEntity>
Porcine Trabecular Meshwork cells (PTM)

>  <assignedClass>
not met

$$$$
>  <compound>
NCC(C(=O)Nc1ccc2cnccc2c1)c1ccc(O)cc1 (stereo not drawn)

>  <targetEntity>
Porcine Trabecular Meshwork cells (PTM)

>  <assignedClass>
not met

$$$$
>  <compound>
NCC(C(=O)Nc1ccc2cnccc2c1)c1ccc(Cl)cc1Cl (stereo not drawn)

>  <targetEntity>
Porcine Trabecular Meshwork cells (PTM)

>  <assignedClass>
met

$$$$

Prompt: Regarding NCC(C(=O)Nc1ccc2cnccc2c1)c1cccc(Cl)c1 (stereo not drawn) , kindly confirm whether its IC50 is beneath 400 nM.
Completion: not met

Prompt: Decide: IC50 of COc1cccc(C(CN)C(=O)Nc2ccc3cnccc3c2)c1 (stereo not drawn) strictly below 400 nM?
Completion: not met

Prompt: Answer whether the compound NCC(C(=O)Nc1ccc2cnccc2c1)c1ccccc1Cl (stereo not drawn) has IC50 strictly less than 400 nM
Completion: met

// data source = patent US9963432B2
